Recorded Inhibition for the following compounds
# Tested on: Cryptococcus neoformans
# settings: Concentration 32 ug.mL-1; ASSAY_TEST Inhibition of Fungal Growth; detection method Resazurin; Absorption (OD600-OD570); plate type 384well; NBS; CORNING #3640
# Description: Antifungal activity against Cryptococcus neoformans H99 ATCC 208821 (CO-ADD:FG_002); MIC in YNB media using NBS plates, by Resazurin OD(600-570)
Entries with a potency or affinity are not part of this list.
Report the figure in % without appending any unit label.

Just so you know, measured Inhibition for "Cc1ccc(Oc2nccn3c(=O)n(CC(=O)Nc4ccccc4Br)nc23)cc1" came out at -18.92

Just so you know, measured Inhibition for "CC(C)c1nnc2c(SCC(=O)Nc3ccccc3C(F)(F)F)nc3ccccc3n12" came out at -15.63

Just so you know, measured Inhibition for "O=C(CSc1nnc2c(=O)n(-c3ccc(F)c(F)c3)ccn12)c1cccc(Cl)c1" came out at -8.13

Just so you know, measured Inhibition for "O=c1c2nnc(SCc3ccc(F)cc3)n2ccn1-c1ccc(Br)cc1" came out at -8.82

Just so you know, measured Inhibition for "COC(=O)c1cccc(NC(=O)Cn2nc3ccc(-c4ccccc4)nn3c2=O)c1" came out at -15.91

Just so you know, measured Inhibition for "O=c1c2sccc2n2c(=O)n(Cc3c(F)cccc3Cl)nc2n1CCc1ccccc1" came out at -23.82

Just so you know, measured Inhibition for "COC(=O)c1ccccc1NC(=O)Cn1nc2c3sc(N4CCCC4)nc3ncn2c1=O" came out at -7.62

Just so you know, measured Inhibition for "Cc1nnc2c(=O)n(CC(=O)Nc3ccc(Cl)cc3)c3ccccc3n12" came out at -11.19

Next:
Just so you know, measured Inhibition for "COc1ccccc1-n1ccn2c(SCC(=O)Nc3ccc(C)cc3Cl)nnc2c1=O" came out at -11.35

Just so you know, measured Inhibition for "Cc1ccc(-c2cc3c4nn(CC(=O)Nc5ccc(F)cc5)c(=O)n4ccn3n2)cc1C" came out at -20.65

Just so you know, measured Inhibition for "COc1ccccc1-n1ccn2c(SCc3cc(C)ccc3C)nnc2c1=O" came out at -7.82

Just so you know, measured Inhibition for "CCCn1c(=O)c2ccc(C(=O)NC3CCCCC3)cc2n2c(=O)n(CC#N)nc12" came out at -10.2

Just so you know, measured Inhibition for "Cc1cccc(NC(=O)CSc2nnc3ccc(C(=O)Nc4cccc(F)c4)cn23)c1" came out at -17.48

Just so you know, measured Inhibition for "CCc1nnc2c(S(=O)(=O)N(Cc3cccc(OC)c3)c3cccc(C)c3)cccn12" came out at -5.34

Just so you know, measured Inhibition for "COc1cc(NC(=O)Cn2nc3ccc(-c4ccc(C)c(C)c4)nn3c2=O)cc(OC)c1" came out at -15.3
